variants and their reported self-cleavage
B1: OR4K15 (parent)
chain: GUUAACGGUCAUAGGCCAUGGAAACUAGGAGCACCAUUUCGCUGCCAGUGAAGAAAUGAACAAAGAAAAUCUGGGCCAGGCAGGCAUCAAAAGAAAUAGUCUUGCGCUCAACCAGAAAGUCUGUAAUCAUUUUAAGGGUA

variants of: B1; experiment: self-cleavage, relative activity (ratio to wild type); higher = more cleavage; in vitro, sequencing; the parent is a self-cleaving ribozyme
experimental readout: self-cleavage

INSERT INTO measurements (mutation, experimental_readout, result) VALUES
  ('A18U C113A', 'self-cleavage', 0.05),
  ('A64G U122A', 'self-cleavage', 0.95),
  ('U39G U132C', 'self-cleavage', 0.94),
  ('U9G U26C', 'self-cleavage', 0.34),
  ('U43A U100C', 'self-cleavage', 2.43),
  ('A64U U100C', 'self-cleavage', 2.38),
  ('A55G A96U', 'self-cleavage', 1.11),
  ('A62G G106U', 'self-cleavage', 0.01),
  ('A98G U131C', 'self-cleavage', 0.49),
  ('A69G G106A', 'self-cleavage', 0.02),
  ('G41U A47G', 'self-cleavage', 1.2),
  ('A114G A134G', 'self-cleavage', 0.63),
  ('A22U A90G', 'self-cleavage', 0.91),
  ('A27U U108C', 'self-cleavage', 0.03),
  ('A4G A69C', 'self-cleavage', 0.53),
  ('U2C A134U', 'self-cleavage', 0.69),
  ('C45U A68C', 'self-cleavage', 1.95),
  ('A24G A47G', 'self-cleavage', 0.73),
  ('A18C U19C', 'self-cleavage', 1.5),
  ('A5U A96G', 'self-cleavage', 1.12),
  ('A98C', 'self-cleavage', 0.96),
  ('A30U C81U', 'self-cleavage', 0.51),
  ('G20A A117G', 'self-cleavage', 0.65),
  ('A33C U38C', 'self-cleavage', 1.53),
  ('A23G U72C', 'self-cleavage', 0.3),
  ('U127C U139C', 'self-cleavage', 0.89),
  ('A23G U122C', 'self-cleavage', 0.84),
  ('U39C U124C', 'self-cleavage', 1.25),
  ('A27G G79A', 'self-cleavage', 0.15),
  ('A55G A89U', 'self-cleavage', 1.55),
  ('G7U A18U', 'self-cleavage', 0.43),
  ('A23C A62G', 'self-cleavage', 0.57),
  ('A68G A82U', 'self-cleavage', 0.22),
  ('C42U C105U', 'self-cleavage', 0.05),
  ('A60U A140U', 'self-cleavage', 1.59),
  ('G20A A95U', 'self-cleavage', 1.89),
  ('U70A A78U', 'self-cleavage', 0.43),
  ('A82G U139C', 'self-cleavage', 0.39),
  ('A90G U127C', 'self-cleavage', 0.13),
  ('A96G U102A', 'self-cleavage', 1.52),
  ('G106A A118G', 'self-cleavage', 0.02),
  ('A68G A126G', 'self-cleavage', 0.6),
  ('G75U U133A', 'self-cleavage', 0.15),
  ('U3C A22U', 'self-cleavage', 1.12),
  ('C16U A129C', 'self-cleavage', 1.3),
  ('U19A A54U', 'self-cleavage', 1.8);

Hello, the source for this data is the RNAGym collection of RNA variant scans (doi:10.7554/elife.90254), in case you need it.
